Target: human GLP-1 receptor (human, UniProt P43220 24-463)
Assay: cell-based or functional assay
Result Type: cAMP EC50

Below: 2 binders and their reported cAMP EC50.
Binder | Result Type | Result Value
IP324 (Fc fusion) YSEGTFTSDYSKLLEEEAVRLFIEWLVKGPGGGGGSGGGGSGGGGSGGGGSGGGGSGGGGSGGGGSA | cAMP EC50 | 0.4 nM
IP201 (Fc fusion) YSEGTFTSDYSKLLEEEAVRLFIEWLLAGPSSGAPPPSAAAGGSGSTASSGSGSATGGGGAATHTCPPCPAPEF | cAMP EC50 | 0.2 nM

Alright, here's another binder for you.
Query block: Give the value of cAMP EC50 reported for the following: IP239 (Fc fusion) YSEGTFTSDYSKLLEEEAVRLFIEWLVKGPAAAGGSGSTASSGSGSATGGGGAACPPCPAPEF
Result block: 0.088 nM

Reference source: patent US20160185837A1
